- Tested on: MS2 coat protein
- procedure_text: apparent KD of MS2 coat protein, switch OFF state (with FMN for OFF switches, without FMN for ON switches); designed switch direction (-1 OFF switch, 1 ON switch): -1; higher = weaker reporter binding
- condition_description: FMN input: 0 or 200 uM; Eterna round: R93 (includes R88 designs)
recorded_endpoint: apparent KD of MS2 coat protein (nM)

[[record]]
entry_sequence = "AAGAACGUAGGAUAUACAUGAGGAUCACCCAUGUAAAAGAAAGAAGGGAAAGAGAAAAGUAGAAGGACGAAGAA [Wahkare Bakenrenef]"
scale_unit = "nM"
endpoint_value = 34.4

[[record]]
entry_sequence = "CCUGUGUGAGGAUAUGGUAUAAAAAAAAAAAAAUAGCUCCUCCAGAAGGCACAUGAGGAUCACCCAUGUCGUGG [Jolly's Folly 17 - Jieux - Exclusion 4]"
scale_unit = "nM"
endpoint_value = 57.1

[[record]]
entry_sequence = "GAAAAGUGAGGAUAUACAUGAGGAUCACCCAUGUGUAUAAAAAAUUACACAAAAGAAAGUAGAAGGCACUAAAG [Mat - Exclusion 3 - Mayanna mod - D113]"
scale_unit = "nM"
endpoint_value = 26.5

[[record]]
entry_sequence = "AAAUGACAUGAGGAUCACCCAUGUCAGGAUAUGACUUGAAAAUAAAAUAAAAAACAUGUCAGAAGGGACAUGAA [Design 49: Sub-opt EB]"
scale_unit = "nM"
endpoint_value = 12.4

[[record]]
entry_sequence = "AAAAAACAUGAGGAUCACCCAUGUCAGGAUAUCUGUAUUCAAUCCUCGGAUUGAAUACAGAGAAGGGACAUGGG [Ex1: 601]"
scale_unit = "nM"
endpoint_value = 18

[[record]]
entry_sequence = "AAAAAGGCAGGAUAUACAUGAGGAUCACCCAUGUAAAAAAAAACAAGAGAAAAAAAAUGUAGAAGGGCCAAAAA [Ex3 Malc#3]"
scale_unit = "nM"
endpoint_value = 26

[[record]]
entry_sequence = "AAAAAACAUGAGGAUCACCCAUGUAAGGAUAUGUAAAACCCAUAUAAAAAGGGAAAAAACAGAAGGUGCAAAAA [wbt round 1 mod 6]"
scale_unit = "nM"
endpoint_value = 30.4

[[record]]
entry_sequence = "AAAAAGUGAGGAUAUACAUGAGGAUCACCCAUGUGAAGGGAAGAAAGAAAGAAAGAAAGUAGAAGGCACAAAAA [Default title]"
scale_unit = "nM"
endpoint_value = 222

[[record]]
entry_sequence = "AAUAAGUGAGGAUAUGUGAAUAGAAGAUAAGAUACCCAAAAACAGAAGGCACAUGAGGAUCACCCAUGUAAAUA [JR_Exc004_Sub009]"
scale_unit = "nM"
endpoint_value = 24.3

[[record]]
entry_sequence = "AAGAAGUGAGGAUAUGUCUGUGCGAAAAAAAAAAAGUGCAGACAGAAGGCACAUGAGGAUCACCCAUGUGGGAA [Florian 65% 6]"
scale_unit = "nM"
endpoint_value = 87.2

[[record]]
entry_sequence = "AAAGACAGAGGAUAUACAUGAGGAUCACCCAUGUGGCGAAAAAAAAUCCAUUUGGCAUGUAGAAGGCUGUAUGA [Orerzadi]"
scale_unit = "nM"
endpoint_value = 51.3

[[record]]
entry_sequence = "AAGGUACGAGGAUAUACAUAGAUACAGACACAUGUACAUGUACAUGAGGAUCACCCAUGUAGAAGGCGUAUAUA [AJ 19]"
scale_unit = "nM"
endpoint_value = 69.7

[[record]]
entry_sequence = "AAAGAUACAGGAUAUACAUGAGGAUCACCCAUGUGGAACCAAAAAUGGGAAAAAGAAAGUAGAAGGGUAUAAAA [Ex 3 May 37]"
scale_unit = "nM"
endpoint_value = 35.7

